system: Fibroblast; experiment: Multiplex assay against human fibroblast; type: toxicity, cell-based; conditions: 12 h, 1 µM, compound concentration 1 uM, replicate 1
Below, each entry is listed with its recorded Population Healthy Nuclei (%).
Give the number; % is assumed, so skip it.

The examples below pair each entry with its known result.
compound=Oc1c(CN2CCN(c3ccccn3)CC2)cc(Cl)c2cccnc12 measured_target=Fibroblast result_value=68
compound=CN(C)c1ccnc2sc3c(=O)n(N4CCCCCC4)cnc3c12 measured_target=Fibroblast result_value=64
compound="O=S(=O)(c1ccccc1)c1cnc2c(N3CCNCC3)cccc2c1 [INTEPIRDINE]" measured_target=Fibroblast result_value=67
compound="Cc1ccccc1C(=O)Nc1ccc(C(=O)N2CCCC(N(C)C)c3ccccc32)cc1.Cl (centres undefined)" measured_target=Fibroblast result_value=71

Give recorded Population Healthy Nuclei (%) with Fibroblast for the following compound: `CC(=O)NCCc1c(Cc2ccccc2)[nH]c2ccccc12` 65

Consider next the compound `COc1cc(NC(=O)CCN2CCC(OC(=O)Nc3ccccc3-c3ccccc3)CC2)c(Cl)cc1CNC[C@H](O)c1ccc(O)c2[nH]c(=O)ccc12` in the same way. 58

Consider next the compound `COc1cc(C(=O)N(CCCc2ccccc2)Cc2ccc(CC(=O)O)cc2)cc(OC)c1C` in the same way. 73

Consider next the compound `O=C1COc2nccc(-c3ccccc3F)c2CN1Cc1cc(C(F)(F)F)cc(C(F)(F)F)c1` in the same way. 74

Consider next the compound COc1ccc2c(c1)C(C(=O)N(Cc1ccc(N(C)C)cc1)c1ccc(C(C)C)cc1)CCC2.Cl (centres undefined) in the same way. 72

* * *

test system: HEK-293T; test: Multiplex assay against HEK293T; type: toxicity, cell-based; conditions: human, 24 h, 1 µM, compound concentration 1 uM, replicate 1
Quantity Name: Population Apoptotic (%)
Give the figure together with its unit, number first.

The examples below pair each entry with its known result.
molecule="CCNC1(C(N)=O)CCN(c2ncnc3c2nc(-c2ccccc2Cl)n3-c2ccc(Cl)cc2)CC1 [OTENABANT]" quantity_name="Population Apoptotic (%)" result_value=49%
molecule="N#Cc1c(N)nc(SCc2csc(-c3ccc(Cl)cc3)n2)c(C#N)c1-c1ccc(OCCO)cc1 [CAPADENOSON]" quantity_name="Population Apoptotic (%)" result_value=36%
molecule="CC(C)(C)c1ccc(S(=O)(=O)Nc2ccc(Cl)cc2C(=O)c2cc[n+]([O-])cc2)cc1 [VERCIRNON]" quantity_name="Population Apoptotic (%)" result_value=41%

Item under review: C[C@H]1[C@H]2CC[C@H]3[C@@H]4CC=C5C[C@@H](N(C)C)CC[C@]5(C)[C@H]4CC[C@]23CN1C [CONESSINE] . Reported Population Apoptotic (%)? 26%

* * *

tested on: HEK-293T; assay: Multiplex assay against HEK293T; format: toxicity, cell-based; conditions: human, 48 h, 1 µM, compound concentration 1 uM, replicate 1
Quantity Name: Total Cell Count
Please give only the number in your answer, with no unit.

compound=CCCn1c(=O)c2[nH]c(C3CCCC3)nc2n(CCC)c1=O quantity_name="Total Cell Count" result_value=957
compound=Oc1c(CN2CCN(c3ccccn3)CC2)cc(Cl)c2cccnc12 quantity_name="Total Cell Count" result_value=689
compound="Cl.Clc1ccc2nsnc2c1NC1=NCCN1 [TIZANIDINE HYDROCHLORIDE]" quantity_name="Total Cell Count" result_value=1005
compound=Cc1nc2ccc(Oc3ccc(F)cc3)cc2c(=O)n1C[C@H]1CCCN(C(C)C)C1.Cl quantity_name="Total Cell Count" result_value=901

Lab note: next compound to report on.
Item under review: CC(C)(C)c1ccc(S(=O)(=O)Nc2ccc(Cl)cc2C(=O)c2cc[n+]([O-])cc2)cc1 [VERCIRNON] . Reported Total Cell Count? 834
